# System: ATP;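 further: ATP exposure 15 min at 22 °C before imaging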
# measurement_protocol: switch fluorescence ratio, 500 uM ATP over buffer (Cy3 cluster intensity, sum of 5 cycles each) (fold (ratio)); higher = stronger signal-on switching upon ATP binding; sequences stand for … in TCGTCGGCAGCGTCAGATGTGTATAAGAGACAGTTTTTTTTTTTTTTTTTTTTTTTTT…TC
# condition_summary: aptamer strand: ATP DNA aptamer (quencher-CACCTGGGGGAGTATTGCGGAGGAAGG + anchor), 100 nM annealed; ATP concentration: 500 uM
experimental_readout: switch fluorescence ratio
Write no unit; give the number alone.

Some sequences with known switch fluorescence ratio results, for comparison:
residues | observed_measurement
TCTTGAAATT | 1.02
CAAGTTTTTT | 0.984
ATTAAACCGG | 0.997
TGCTAAATTG | 1.02
ACGTTTTGTC | 1

switch fluorescence ratio recorded for this sequence, GTTTAAAGAC , is 0.981

switch fluorescence ratio recorded for this sequence, CAGATGGGTA , is 0.971

switch fluorescence ratio recorded for this sequence, ATGCAGGCGG , is 0.981

switch fluorescence ratio recorded for this sequence, ACGGGTGCGT , is 1.02

switch fluorescence ratio recorded for this sequence, GGGTATTTTG , is 0.997

switch fluorescence ratio recorded for this sequence, GAGATCTTGG , is 0.982

switch fluorescence ratio recorded for this sequence, CCATGATTTG , is 0.992

switch fluorescence ratio recorded for this sequence, GCCTTGTGCA , is 0.995
